Tested on: OVCAR-3 ovarian
protocol_notes: NCI tumour cell line growth inhibition, 48 h
recorded_metric: TGI

molecule	TGI
CCOC(=O)CCC1(CCC(=O)OCC)CCCCCCCCC(CCC(=O)OCC)(CCC(=O)OCC)C(=O)C1=O	> 100 µM

Now turn to the next molecule.
Given item CCOC(=O)C(NC(=O)c1ccccc1)(N1CCN(c2cc3c(cc2F)c(=O)c(C(=O)O)cn3C2CC2)CC1)C(F)(F)F (stereo unspecified) , the value recorded as its TGI is 48.6 µM

----------
Tested on: SR leukemia
protocol_notes: NCI tumour cell line growth inhibition, 48 h
The entries below are paired with their reported TGI.

Answered cases to consult:
structure_notation	measured
COc1ccc(-c2cc(Nc3ccnc(N4CCOCC4)n3)on2)cc1	> 100 µM
COc1ccc(-c2noc(N)c2-c2cc(OC)c3c(c2)OCO3)cc1	> 51.2 µM
COc1cc2c3c(n(CCCN(CCO)CCO)c(=O)c2cc1OC)-c1cc2c(cc1C3=O)OCO2	< 0.01 µM

TGI on SR leukemia for `N[C@H](Cc1ccc2oc3cc(=O)c4ccccc4c-3nc2c1)C(=O)O` is > 100 µM

TGI on SR leukemia for `CCOC(=O)c1sc2nc(SC)nc(Nc3ccc4c(c3)OCCO4)c2c1N` is > 100 µM

TGI on SR leukemia for `CC(C)(C)c1cc(C(=O)/C=C/c2ccc(C(=O)O)cc2)cc(C(C)(C)C)c1` is 6.16 µM

TGI on SR leukemia for `O=C1c2ccc3c4ccccc4n(-c4ccccc4)c3c2C(=O)N1c1ccc(Cl)cc1` is > 100 µM

TGI on SR leukemia for `O=C(Nc1ccc(Cl)cc1)Nc1nccs1` is 62.6 µM
